Ref: patent US20230233569A1

# Measured target: NRAS WT (Homo sapiens, UniProt P01111+P62937)
# Sequence (P01111 whole entry): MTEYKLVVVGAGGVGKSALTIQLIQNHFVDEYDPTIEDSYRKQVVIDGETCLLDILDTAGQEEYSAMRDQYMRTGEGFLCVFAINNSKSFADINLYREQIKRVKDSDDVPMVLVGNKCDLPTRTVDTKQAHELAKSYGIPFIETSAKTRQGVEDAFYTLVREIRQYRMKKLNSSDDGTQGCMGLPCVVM
# Sequence (P62937 whole entry): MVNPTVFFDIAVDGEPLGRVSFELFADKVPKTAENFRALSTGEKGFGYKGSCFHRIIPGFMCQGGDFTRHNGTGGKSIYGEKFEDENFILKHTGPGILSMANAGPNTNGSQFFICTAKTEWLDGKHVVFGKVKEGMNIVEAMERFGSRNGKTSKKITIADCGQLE
# Assay name: Disruption of BRAF RBD interaction with Ras (FRET / MOA assay, with Cyclophilin A)
# Assay type: biochemical
# Particulars: NRAS WT; read-out: NRAS WT FRET data IC50
pIC50: −log10 of the molar value.
Measured parameter: pIC50

Examples with answers:
Compound: CCn1c(-c2cccnc2[C@H](C)OC)c2c3cc(ccc31)-c1cc(O)cc(c1)C[C@H](NC(=O)[C@H](C(C)C)N(C)C(=O)[C@H]1C[C@@H]1O)C(=O)N1CCC[C@H](N1)C(=O)OCC(C)(C)C2 (single isomer, unassigned) [Example A346]
pIC50: 7.00 to 8.00
--
Compound: CCn1c(-c2cc(N3CCN(C)CC3)cnc2[C@H](C)OC)c2c3cc(ccc31)-c1csc(n1)C[C@H](NC(C)=O)C(=O)N1CCC[C@H](N1)C(=O)OCC(C)(C)C2 (atropisomer, axis not shown) [Example A340]
pIC50: < 5.00
--
Compound: CCn1c(-c2cccnc2[C@H](C)OC)c2c3cc(ccc31)-c1csc(n1)C[C@H](NC(=O)[C@H](C(C)C)N(C)C(=O)O[C@H]1CCOC1)C(=O)N1CCC[C@H](N1)C(=O)OCC(C)(C)C2 [Example A210]
pIC50: 6.00 to 7.00

**Q:** Param item = CCn1c(-c2cccnc2[C@H](C)OC)c2c3cc(ccc31)-c1csc(n1)C[C@H](NC(=O)c1ccccn1)C(=O)N1CCC[C@H](N1)C(=O)OCC(C)(C)C2 [Example A366] ; retrieve measured pIC50.
**A:** 6.00 to 7.00
